molecular target: 5-hydroxytryptamine receptor 6 (Homo sapiens)
Sequence (P50406 whole entry): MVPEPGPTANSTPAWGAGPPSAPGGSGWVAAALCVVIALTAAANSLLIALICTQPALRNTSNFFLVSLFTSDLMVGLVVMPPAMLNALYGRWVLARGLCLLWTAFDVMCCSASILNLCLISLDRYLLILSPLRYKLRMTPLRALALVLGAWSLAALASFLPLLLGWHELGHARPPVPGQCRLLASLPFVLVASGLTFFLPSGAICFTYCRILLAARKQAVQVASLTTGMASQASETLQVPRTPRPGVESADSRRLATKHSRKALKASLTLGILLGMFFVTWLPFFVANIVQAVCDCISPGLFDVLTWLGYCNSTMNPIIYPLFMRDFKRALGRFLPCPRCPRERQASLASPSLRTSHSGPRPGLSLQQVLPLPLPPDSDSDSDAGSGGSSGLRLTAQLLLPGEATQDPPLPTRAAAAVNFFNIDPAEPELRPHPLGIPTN
measured-property: pKi
Give bare numbers, as −log10 of the molar value.

get_value(item= CCC(=O)Nc1ccc2[nH]cc(C3CCN(C)CC3)c2n1 , readout=pKi) returns 5.95

----------
For each record, write down the corresponding Emax.
biological target: 5-hydroxytryptamine receptor 1F (Homo sapiens); assay: Maximum stimulation of [35S]GTP-gamma-S, binding expressed relative to the maximal effect of 5-hydroxytryptamine […]; type: functional
Give bare numbers, in %.

Sample answers from the record:
CN1CCC(c2c[nH]c3ccc(NC(=O)c4ccsc4)nc23)CC1; 84
CN1CCC(c2c[nH]c3ccc(NC(=O)C4CCC4)nc23)CC1; 81

Answer for every listed entry: what is its Emax? The entries follow.
1. CCC(=O)Nc1ccc2[nH]cc(C3CCN(C)CC3)c2n1
2. CN1CCC(c2c[nH]c3ccc(NC(=O)c4ccco4)nc23)CC1
3. CN1CCC(c2c[nH]c3ccc(NC(=O)C4CC4)nc23)CC1

88
82
77
